Method Description: AUC in mouse at 100 mg/kg, po
Assay type: ADME, organism-based
Design: dose 100 mg/kg, route oral
Assay Setup: plasma
Observable: AUC (µM·h)

> print(dat)
                              smiles.str  result.value
1  COc1c(C)cnc(Cn2cnc3c(Cl)nc(N)nc32)c1C            15

###

Method Description: Half life in plasma of mouse bearing human MM1S cells at 50 mg/kg
Type: ADME, organism-based
Parameters: dose 50 mg/kg
Observable: half-life (h)

> print(dat)
                                 smiles.str  observable  result.value
1  CC1(C)CC(=O)c2c(C(F)(F)F)nn(-c3ccc(C(N)=O)c(N[C@H]4CC[C@H](O)CC4)c3)c2C1   half-life             3

All figures here come from ChEMBL document CHEMBL1154885.
